System: Trypanosoma brucei rhodesiense
TEST_METHOD_NOTES: Antitrypanosomal activity against Trypanosoma brucei rhodesiense STIB900 trypomastigotes infected in NMRI mouse assessed as mouse survival at 5 mg/kg, ip administered from day 3 to day 6 postinfection
Type: functional
MEASUREMENT_SETUP: route intraperitoneal
I'd be grateful if you could share measured Survival for these entries.

COc1cc(C(=N)N)ccc1OCCCOc1ccc(C(=N)N)cc1OC.Cl.Cl: >52.8 days
CNC(=N)c1ccc(OCCCCCOc2ccc(C(=N)NC)cc2)cc1.Cl.Cl: >41 days

Now for a further compound.
Query (compound): Cl.Cl.Cl.Cl.N=C(N)c1ccc(OCCCOc2ccc(C(=N)N)cc2Cl)c(Cl)c1 ; field requested: Survival
>60 days

###

Tested on: Leishmania donovani
TEST_METHOD_NOTES: Antiprotozoal activity against Leishmania donovani MHOM/SD/62/1S-CL2D axenic amastigotes after 72 hrs
Format: functional, organism-based
Answer each item with its documented IC50.

Below are worked cases with known answers.
CN1CCN=C1c1ccc(OCCCCCOc2ccc(C3=NCCN3C)cc2)cc1: > 100 µM
N=C(N)c1ccc(OCCCCCOc2ccc(N)cc2)cc1: > 100 µM
N=C(N)c1ccc(OCCCCCOc2ccc(C(=N)N)c(O)c2)cc1O: > 100 µM

Attention now shifts to the item below.
Look up IC50 for this compound: O=C(O)c1cc(C2=NCCN2)ccc1OCCCCCOc1ccc(C2=NCCN2)cc1C(=O)O
> 200 µM

###

Tested on: Leishmania donovani
TEST_METHOD_NOTES: Antiprotozoal activity against Leishmania donovani MHOM/SD/62/1S-CL2D axenic amastigotes after 72 hrs
Format: functional, organism-based
Each entry falls into one class according to its IC50; the ranges are lo = under 2 µM, med = from 2 µM up to 7 µM, hi = 7 µM and over

Some entries whose results are on file:
COc1cc(C2=NCCN2)ccc1OCCCOc1ccc(C2=NCCN2)cc1OC.Cl.Cl: hi
Cl.Cl.N=C(N)c1ccc(OCCCCCOc2ccc(C(=N)N)cc2C(N)=O)c(C(N)=O)c1: hi
CCOC(=O)c1cc(C(=N)NC(C)C)ccc1OCCCCCOc1ccc(C(=N)NC(C)C)cc1C(=O)OCC.Cl.Cl: hi

For Cl.Cl.N=C(N)c1ccc(SCCCCCSc2ccc(C(=N)N)cc2)cc1 , which IC50 bin applies?
lo

In plain terms, what class is CC(C)NC(=N)c1ccc(NCCCCCNc2ccc(C(=N)NC(C)C)cc2)cc1.Cl ?
med

###

TEST_METHOD_NOTES: Selectivity index, ratio of IC50 for rat L6 cells to IC50 for Leishmania donovani MHOM/SD/62/1S-CL2D axenic amastigotes
Assay type: toxicity, cell-based
MEASUREMENT_SETUP: read-out: Ratio IC50
Give selectivity ratio for every item shown.

Guide cases for selectivity ratio, answers given:
CCOC(=O)c1cc(C(=N)N)ccc1OCCCCCOc1ccc(C(=N)N)cc1C(N)=O: > 3
COc1cc(C(=N)N)ccc1OCCCCOc1ccc(C(=N)N)cc1OC.Cl.Cl: > 5

Please supply selectivity ratio for each of the following items, keeping them in order.
1. COc1cc(C2=NCCN2)ccc1OCCCCCOc1ccc(C2=NCCN2)cc1OC.Cl.Cl
2. COc1cc(C2=NCCN2)ccc1OCCCCOc1ccc(C2=NCCN2)cc1OC.Cl.Cl

1. > 4
2. > 4

###

Test system: Leishmania donovani
TEST_METHOD_NOTES: Antiprotozoal activity against Leishmania donovani MHOM/SD/62/1S-CL2D axenic amastigotes after 72 hrs
Format: functional, organism-based
Give pIC50 for every item shown.
Numbers only, as −log10 of the molar value.

COc1cc(C(=N)N)ccc1OCCCOc1ccc(C(=N)N)cc1OC.Cl.Cl: 5.16
Cl.Cl.c1cc(C2=NCCN2)ccc1NCCCCCNc1ccc(C2=NCCN2)cc1: 6.60

Dear colleague, could you send me pIC50 for each of the items below? Thanks.
1. CC(C)NC(=N)c1ccc(OCCCOc2ccc(C(=N)NC(C)C)cc2)cc1.Cl.Cl
2. Cl.Cl.N=C(N)c1ccc(OCCCCCOc2ccc(C(=N)N)c(F)c2)cc1F

[5.15, 5.73]

Give pIC50 for each of the items listed below.
1. Cl.Cl.N=C(N)c1ccc(OCCCOc2ccc(C(=N)N)cc2Br)c(Br)c1
2. CNC(=N)c1ccc(OCCCCCOc2ccc(C(=N)NC)cc2)cc1.Cl.Cl
3. Cl.Cl.N=C(N)c1cccc(OCCCCOc2cccc(C(=N)N)c2)c1

[5.93, 5.33, 5.35]

// each listed compound needs a value for pIC50
1. COc1cc(C2=NCCN2)ccc1OCCCCOc1ccc(C2=NCCN2)cc1OC.Cl.Cl
2. CCOC(=O)c1cc(C2=NCCN2)ccc1OCCCCCOc1ccc(C2=NCCN2)cc1C(=O)OCC
3. Cl.c1cc(C2=NCCN2)ccc1OCCCCCOc1ccc(C2=NCCN2)cc1
4. Cl.Cl.Cl.Cl.N=C(N)c1ccc(OCCCCOc2ccc(C(=N)N)cc2Cl)c(Cl)c1

[4.41, 4.87, 5.56, 5.67]

###

Assign IC50 to each entry below.
Test system: Leishmania donovani
TEST_METHOD_NOTES: Antiprotozoal activity against Leishmania donovani MHOM/SD/62/1S-CL2D axenic amastigotes after 72 hrs
Type: functional, organism-based

Examples with their reported IC50 follow.
N=C(N)c1ccc(S(=O)(=O)CCCCCS(=O)(=O)c2ccc(C(=N)N)cc2)cc1: > 100 µM
CC(C)NC(=N)c1ccc(OCCCCCOc2ccc(C(=N)NC(C)C)c(O)c2)cc1O: > 100 µM

// switching to the query molecule
Leishmania donovani / IC50 / Oc1cc(OCCCCCOc2ccc(C3=NCCN3)c(O)c2)ccc1C1=NCCN1 : value?
> 100 µM

This collection of values is drawn from ChEMBL document CHEMBL1153346.
